measured-on: hGYS1 enzyme (recombinant hGYS1/GN1 protein) (Homo sapiens (Human))
run-description: GYS1 coupled enzyme assay (PK/LDH)
measurement-conditions: hGYS1/GN1 50 nM, UDP-Glucose 0.8 mM, G6P 1 mM; geometric mean of at least 2 runs
readout: IC50

Cc1n[nH]c(C)c1CC(=O)N1C[C@H](F)C[C@H]1C(=O)N[C@@H](c1ccccc1)c1ccc(C(C)C)cc1	10 nM

Give IC50 for each of the items listed below.
1. CC(=O)N1CC[C@@H](C(=O)N2C[C@H](F)C[C@H]2C(=O)N[C@@H](c2ccccc2)c2ccc(C(C)C)cc2)[C@@H]1c1cccnc1
2. CC(=O)N[C@H](CC(N)=O)C(=O)N1C[C@H](F)C[C@H]1C(=O)N[C@@H](c1ccccc1)c1ccc(C(C)C)cc1
3. CC(C)c1ccc([C@@H](NC(=O)[C@@H]2C[C@@H](F)CN2C(=O)Cn2cnnc2)c2ccccc2)nc1
4. O=C(N[C@@H](c1ccccc1)c1ccc(C2CC2)c(F)c1)[C@@H]1C[C@@H](F)CN1C(=O)Cn1nnc2ccccc21
5. CC(C)c1ccc(C(NC(=O)[C@@H]2C[C@@H](F)CN2C(=O)Cc2cnn[nH]2)c2cncc(F)c2)cc1F (single isomer, unassigned)

OUT:
1: 67 nM; 2: 91 nM; 3: 149 nM; 4: 94 nM; 5: 1640 nM

Give IC50 for each of the items listed below.
1. O=C1Nc2ccccc2C1CC(=O)N1C[C@H](F)C[C@H]1C(=O)N[C@@H](c1ccccc1)c1ccc(C2CC2)c(F)c1 (stereo partly shown)
2. CC(C)c1ccc([C@@H](NC(=O)[C@@H]2C[C@@H](F)CN2C(=O)Cc2nnn[nH]2)c2ccccc2)cc1F

OUT:
["324 nM", "16 nM"]

Give IC50 for each of the items listed below.
1. CC(C)c1ccc([C@@H](NC(=O)[C@@H]2C[C@@H](F)CN2C(=O)COC(=O)N(C)C)c2ccccc2)cc1F
2. O=C(N[C@@H](c1ccccc1)c1ccc(C2CC2)c(F)c1)[C@@H]1C[C@@H](F)CN1C(=O)Cn1cccn1

OUT:
1: 19 nM; 2: 149 nM

Give IC50 for each of the items listed below.
1. CC(C)c1ccc([C@@H](NC(=O)[C@@H]2C[C@@H](F)CN2C(=O)Cc2cn(C)nn2)c2ccccc2)cc1 (stereo in doubt)
2. CC(C)c1ccc([C@@H](NC(=O)[C@@H]2C[C@@H](F)CN2C(=O)CNc2ncco2)c2ccccc2)cc1
3. CC(=O)N1C[C@H]2COC[C@@]2(C(=O)N2C[C@H](F)C[C@H]2C(=O)N[C@@H](c2ccccc2)c2ccc(C(C)C)cc2)C1

OUT:
1: 25 nM; 2: 31 nM; 3: 168 nM

====

Kindly supply the reported pIC50 values for the records listed here.
measured-on: hGYS1 enzyme (recombinant hGYS1/GN1 protein) (Homo sapiens (Human), UniProt P13807)
Sequence (P13807 whole entry): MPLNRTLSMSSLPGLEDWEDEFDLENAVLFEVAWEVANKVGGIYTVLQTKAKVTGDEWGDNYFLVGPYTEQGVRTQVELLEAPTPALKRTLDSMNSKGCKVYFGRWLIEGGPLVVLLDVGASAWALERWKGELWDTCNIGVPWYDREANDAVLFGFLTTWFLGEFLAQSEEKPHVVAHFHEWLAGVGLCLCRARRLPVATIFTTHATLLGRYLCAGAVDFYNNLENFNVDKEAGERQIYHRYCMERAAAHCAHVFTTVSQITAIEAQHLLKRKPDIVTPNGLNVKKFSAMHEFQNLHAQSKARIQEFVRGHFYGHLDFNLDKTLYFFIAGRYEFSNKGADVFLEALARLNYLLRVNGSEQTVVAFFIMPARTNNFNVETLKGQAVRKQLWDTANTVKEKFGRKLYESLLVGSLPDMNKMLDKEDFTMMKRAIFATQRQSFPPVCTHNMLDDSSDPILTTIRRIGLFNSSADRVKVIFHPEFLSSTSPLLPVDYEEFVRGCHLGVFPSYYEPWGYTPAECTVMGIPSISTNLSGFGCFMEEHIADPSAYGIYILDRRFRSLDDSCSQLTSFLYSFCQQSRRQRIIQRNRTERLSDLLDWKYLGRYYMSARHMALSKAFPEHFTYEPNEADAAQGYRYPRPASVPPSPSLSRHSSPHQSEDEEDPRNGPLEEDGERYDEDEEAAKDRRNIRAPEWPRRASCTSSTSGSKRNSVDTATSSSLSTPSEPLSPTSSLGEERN
Sequence (P46976 whole entry partner): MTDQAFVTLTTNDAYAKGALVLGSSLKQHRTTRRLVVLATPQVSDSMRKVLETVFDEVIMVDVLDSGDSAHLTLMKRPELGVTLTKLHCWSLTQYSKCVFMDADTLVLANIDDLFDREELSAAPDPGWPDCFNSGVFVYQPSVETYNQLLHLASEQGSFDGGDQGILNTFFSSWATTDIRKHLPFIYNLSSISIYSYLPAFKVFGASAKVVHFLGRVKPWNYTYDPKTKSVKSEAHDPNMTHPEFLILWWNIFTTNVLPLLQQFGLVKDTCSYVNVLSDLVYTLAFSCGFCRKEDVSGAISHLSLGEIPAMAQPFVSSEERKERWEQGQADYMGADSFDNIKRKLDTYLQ
run-description: GYS1 coupled enzyme assay (PK/LDH)
measurement-conditions: hGYS1/GN1 50 nM, UDP-Glucose 0.8 mM, G6P 1 mM; geometric mean of at least 2 runs
Numbers only, as −log10 of the molar value.

Reference set (5 entries):
CC(=O)N1CC[C@@]2(C1)C(=O)NCC2C(=O)N1C[C@H](F)C[C@H]1C(=O)N[C@@H](c1ccccc1)c1ccc(C(C)C)cc1 (stereo in doubt) [Compound 6]	6.68
COc1ccc(CC(=O)N2C[C@H](F)C[C@H]2C(=O)N[C@@H](c2ccccc2)c2ccc(C(C)C)cc2)cc1 [Compound 88]	7.31
CC(=O)N1CCC2(CC2C(=O)N2C[C@H](F)C[C@H]2C(=O)N[C@@H](c2ccccc2)c2ccc(C(C)C)cc2)C1 (stereo partly shown) [Compound 156]	6.52
CC(C)c1ccc([C@@H](NC(=O)[C@@H]2C[C@@H](F)CN2C(=O)C2(C)COC2)c2ccccc2)cc1 [Compound 25]	6.63
CC(C)c1ccc([C@@H](NC(=O)[C@@H]2C[C@@H](F)CN2C(=O)c2cc3n(n2)CCCNC3=O)c2ccccc2)cc1 [Compound 131]	6.25

Give pIC50 for each of the items listed below.
1. Cc1cc(C(NC(=O)[C@@H]2C[C@@H](F)CN2C(=O)Cc2cnn[nH]2)c2cccnc2N)ccc1C(C)C (single isomer, unassigned) [Compound 624]
2. CC(C)c1ccc([C@@H](NC(=O)[C@@H]2C[C@@H](F)CN2C(=O)Cc2ccc3ncccc3c2)c2ccccc2)cc1F [Compound 357]
3. CC(C)c1ccc([C@@H](NC(=O)[C@@H]2C[C@@H](F)CN2C(=O)Cc2noc(=O)[nH]2)c2ccccc2)nc1 [Compound 286]

OUT:
1: 6.39; 2: 7.68; 3: 6.83
